Data origin, for the record: paper PMC3608651

System Name: HLA-A*02:01 (Homo sapiens, UniProt P04439, D140Y/D185E/D98H/E176V/E277Q/G131W/G231S/I119V/I121R/I166T/I218V/L300P/L318F/N151K/N90K/P208A/P217A/Q86G/Q94H/R138H/R169H/T345S)
Assay type: binding
Study Conditions: time points 0-8 h; time when 50% of peptide has dissociated
Experimental Readout: O-rate A*02:01 (t1/2) (h)
The reply should contain only the number, in h.

Worked cases, O-rate A*02:01 (t1/2) given:
* MLDHAGDMA [Rv0288_11–19m1] | 1.5
* HSMSSTHEA [Rv0288_70–78m1] | 0.3

--- query ---
Q: Note down O-rate A*02:01 (t1/2) recorded for SQIMYNYPT [Rv0288_2–10m1]
Ans: 0.7
